- Tested on: MCF7 breast
- ASSAY OVERVIEW: NCI-60 one-dose screen, 48 h (100 = growth as untreated, 0 = no growth, -100 = all killed)
- PARTICULARS: 10 µM unless noted
- Description: Growth inhibition of the MCF7 human tumor cell line is measured as a screen for anti-cancer activity. Cells are grown in 96 well plates and exposed to the test compound for 48 hours. Compounds are tested at a single concentration, which is 10^-5 M for most compounds. The reported endpoint is percent growth (GI% or GIPRCNT), where numbers from 0 - 100% represent growth inhibition, and numbers from -100% - 0 represent cell death. For example, a value of 40 represents 60% growth inhibition. […]
The panel holds about 83,000 compounds, 20% with a hit somewhere; the sample as a whole holds those more often. Active and inactive are the calls of the source. Rule for the calls: active = growth percent below 10; inactive = the rest.
PROPERTY LABEL: growth

Record O=C1c2ccccc2NC(n2sc3ccccc3c2=O)N1c1ccccc1 (stereo unspecified) , field growth: 94.3% (inactive)

Given item `COc1ccc(-c2nnc(COc3ccc(Cl)cc3Cl)o2)cc1OC` , the value recorded as its growth is 32.9% (inactive)

Per the record, `CCC(=O)Nc1ccc(-c2nc(-c3cccc(OC)c3)c(-c3ccnc(Br)c3)[nH]2)cc1` has growth of 25.5% (inactive)

// growth lookup, compound = `Nc1nc(-c2cccc3ccccc23)cc2ccccc12` , result: 7.69% (active)

Lab book: growth of `N#Cc1cccc(NC(=O)c2cc(-c3ccc(F)cc3F)ccc2O)c1` noted as 3.66% (active)

Lab book: growth of `CCN(CC)S(=O)(=O)c1ccc(NC(=O)CSc2nnc(C)n2-c2ccccc2)cc1` noted as 113% (inactive)
